All values here come from patent US11207312B2.

target: IMP-1 (Serratia marcescens)
Sequence (P52699 whole entry, looked up, species assumed): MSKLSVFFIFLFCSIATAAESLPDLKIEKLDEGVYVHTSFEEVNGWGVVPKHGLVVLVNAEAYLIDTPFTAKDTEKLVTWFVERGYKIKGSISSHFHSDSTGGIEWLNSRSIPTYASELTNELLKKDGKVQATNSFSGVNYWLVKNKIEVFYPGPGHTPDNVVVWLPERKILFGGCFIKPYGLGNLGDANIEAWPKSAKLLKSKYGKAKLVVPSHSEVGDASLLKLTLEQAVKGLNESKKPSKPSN
pIC50: −log10 of the molar value.
readout type: pIC50

item_smiles=NC[C@@H](O)CNS(=O)(=O)c1ccc(N2CCC(F)(CN)CC2)c(-c2nn[nH]n2)c1S(N)(=O)=O readout_type=pIC50 value_reported=8.40
item_smiles=NC[C@@H](O)CNS(=O)(=O)c1ccc(N2CCC(F)(CO)CC2)c(-c2nn[nH]n2)c1S(N)(=O)=O readout_type=pIC50 value_reported=9.15
item_smiles=CC1(CN)CCN(c2ccc(S(=O)(=O)NC[C@H](O)CN)c(S(N)(=O)=O)c2-c2nn[nH]n2)CC1 readout_type=pIC50 value_reported=8.16
item_smiles=NS(=O)(=O)c1c(S(=O)(=O)N[C@@H]2CCNC2)ccc(N2CCC(CO)CC2)c1-c1nnn[nH]1 readout_type=pIC50 value_reported=9.80
item_smiles=NC[C@@H](O)CNS(=O)(=O)c1ccc(N2CCCN(CCO)CC2)c(-c2nn[nH]n2)c1S(N)(=O)=O readout_type=pIC50 value_reported=7.39
item_smiles=NS(=O)(=O)c1c(S(=O)(=O)N[C@@H]2CCNC2)ccc(N2CCC(CCO)CC2)c1-c1nnn[nH]1 readout_type=pIC50 value_reported=9.89
item_smiles=NC[C@@H](O)CNS(=O)(=O)c1ccc(N2CCC(c3c[nH]cn3)CC2)c(-c2nnn[nH]2)c1S(N)(=O)=O readout_type=pIC50 value_reported=9.59

---

target: IMP-1 (Serratia marcescens); experiment: biochemical; settings: CCF2-FA fluorescence assay, 2 hours at 25° C.; read-out: IMP1 IC50
pIC50: −log10 of the molar value.
Use 1 when the recorded pIC50 is no lower than 8; use -1 when it is lower.

compound=NCC1CCN(c2ccc(S(=O)(=O)N[C@H](CN)CO)c(S(N)(=O)=O)c2-c2nn[nH]n2)CC1 assigned_category=-1
compound=NS(=O)(=O)c1c(S(=O)(=O)N[C@@H]2CCNC2)ccc(N2CCC(Oc3ccccn3)CC2)c1-c1nnn[nH]1 assigned_category=1
compound=N[C@H]1CCCN(c2ccc(S(=O)(=O)N[C@@H]3CCNC3)c(S(N)(=O)=O)c2-c2nn[nH]n2)C1=O assigned_category=-1
compound="NC[C@@H](O)CNS(=O)(=O)c1ccc(N2CC[C@@H](N)[C@@H](F)C2)c(-c2nn[nH]n2)c1S(N)(=O)=O [Example 207]" assigned_category=-1
compound=NCC1=CCN(c2ccc(S(=O)(=O)NC[C@H](O)CN)c(S(N)(=O)=O)c2-c2nn[nH]n2)CC1 assigned_category=1

---

This listing pairs molecules with measured CL5741 S. marcescens MITC95 IMP.
tested on: Serratia marcescens expressing IMP-1 (CL5741); assay type: cell-based; conditions: with imipenem 1 μg/ml; 95% inhibition of bacterial growth
Counter-ions that a name gives are not always drawn.
readout type: CL5741 S. marcescens MITC95 IMP (µM)

molecule=NC[C@@H](O)CNS(=O)(=O)c1ccc(N2CC[C@@H](N)[C@H](F)C2)c(-c2nn[nH]n2)c1S(N)(=O)=O readout_type="CL5741 S. marcescens MITC95 IMP" unit_string=µM value_reported=0.78
molecule=NC1CCN(c2ccc(S(=O)(=O)N[C@@H]3CCNC3)c(S(N)(=O)=O)c2-c2nnn[nH]2)CC1 readout_type="CL5741 S. marcescens MITC95 IMP" unit_string=µM value_reported=1.56
molecule="NC[C@@H](O)CNS(=O)(=O)c1ccc(N2CC[C@@H](N)[C@@H](F)C2)c(-c2nn[nH]n2)c1S(N)(=O)=O (single isomer, unassigned) [Example 1]" readout_type="CL5741 S. marcescens MITC95 IMP" unit_string=µM value_reported=0.20
molecule=CC1(O)CCN(c2ccc(S(=O)(=O)N[C@@H]3CCNC3)c(S(N)(=O)=O)c2-c2nnn[nH]2)CC1 readout_type="CL5741 S. marcescens MITC95 IMP" unit_string=µM value_reported=3.13
molecule=NC[C@@H](O)CNS(=O)(=O)c1ccc(N2CC[C@H](N)C2)c(-c2nn[nH]n2)c1S(N)(=O)=O readout_type="CL5741 S. marcescens MITC95 IMP" unit_string=µM value_reported=3.13
molecule="NCCC1CCCN(c2ccc(S(=O)(=O)NC[C@H](O)CN)c(S(N)(=O)=O)c2-c2nn[nH]n2)CC1 (stereo partly drawn) [Example 140, trifluoroacetate]" readout_type="CL5741 S. marcescens MITC95 IMP" unit_string=µM value_reported=0.78
